The measured values listed here are drawn from the supplement of paper PMC8728848.

system: Fuc(a1-3)[Gal(b1-4)]Glc6S
assay.notes: glycan array binding signal (z-score within array); higher = stronger binding
applied.conditions: glycan notation: IUPAC condensed, linker removed
Shown is part of a subset that was picked to be rich in the strongest signals.
Could you please report measured glycan array binding signal (z-score) for the items listed next?
Numbers only.

Reference set (9 entries):
Exam item: Which glycan array binding signal (z-score) value belongs to OS9-MRH (Homo sapiens), Q13438 (protein) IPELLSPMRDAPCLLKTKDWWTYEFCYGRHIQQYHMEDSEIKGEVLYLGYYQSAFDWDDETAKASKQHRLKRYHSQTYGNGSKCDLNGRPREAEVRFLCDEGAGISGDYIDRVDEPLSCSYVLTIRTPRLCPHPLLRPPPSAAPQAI ?
Marked response: -1.74

Exam item: Which glycan array binding signal (z-score) value belongs to Langerin K299A/K313A (Homo sapiens), Q9UJ71 (protein) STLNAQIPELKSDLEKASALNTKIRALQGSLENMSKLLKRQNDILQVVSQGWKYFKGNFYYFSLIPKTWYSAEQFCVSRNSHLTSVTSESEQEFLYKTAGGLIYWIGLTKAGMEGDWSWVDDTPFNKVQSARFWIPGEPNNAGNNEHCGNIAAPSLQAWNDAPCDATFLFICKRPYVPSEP ?
Marked response: 3.28

Exam item: Which glycan array binding signal (z-score) value belongs to MLTim-4 (Mus musculus), Q6U7R4 (protein) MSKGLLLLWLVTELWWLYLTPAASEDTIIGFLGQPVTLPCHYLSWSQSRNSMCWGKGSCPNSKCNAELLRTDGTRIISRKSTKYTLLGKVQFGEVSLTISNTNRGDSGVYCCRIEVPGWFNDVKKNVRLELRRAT ?
Marked response: 2.31

Exam item: Which glycan array binding signal (z-score) value belongs to Jacalin (Artocarpus integrifolia) (protein) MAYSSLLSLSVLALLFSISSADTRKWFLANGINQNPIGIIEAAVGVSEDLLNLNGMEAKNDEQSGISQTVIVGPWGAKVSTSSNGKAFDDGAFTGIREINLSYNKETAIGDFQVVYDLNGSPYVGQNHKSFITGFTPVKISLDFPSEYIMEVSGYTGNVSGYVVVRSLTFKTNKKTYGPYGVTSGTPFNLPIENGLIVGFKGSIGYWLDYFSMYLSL ?
Marked response: -0.23

Exam item: Which glycan array binding signal (z-score) value belongs to Mincle (Bos taurus) (protein) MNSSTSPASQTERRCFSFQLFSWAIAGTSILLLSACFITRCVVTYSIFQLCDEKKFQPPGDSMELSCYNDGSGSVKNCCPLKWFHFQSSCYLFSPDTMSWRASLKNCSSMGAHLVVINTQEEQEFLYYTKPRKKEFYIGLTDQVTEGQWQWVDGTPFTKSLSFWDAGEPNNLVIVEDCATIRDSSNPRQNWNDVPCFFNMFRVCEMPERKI ?
Marked response: -0.342

Exam item: Which glycan array binding signal (z-score) value belongs to SCA (Schizophyllum commune) (protein) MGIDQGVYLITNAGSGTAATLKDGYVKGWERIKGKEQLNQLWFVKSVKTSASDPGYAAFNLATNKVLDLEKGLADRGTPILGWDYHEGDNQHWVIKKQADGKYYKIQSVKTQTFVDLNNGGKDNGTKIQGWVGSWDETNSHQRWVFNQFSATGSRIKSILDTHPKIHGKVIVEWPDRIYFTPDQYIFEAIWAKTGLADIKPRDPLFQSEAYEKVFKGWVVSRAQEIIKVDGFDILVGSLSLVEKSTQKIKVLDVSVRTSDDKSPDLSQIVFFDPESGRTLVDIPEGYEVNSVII ?
Marked response: -0.16

Exam item: Which glycan array binding signal (z-score) value belongs to EUL D1A (Oryza sativa) (protein) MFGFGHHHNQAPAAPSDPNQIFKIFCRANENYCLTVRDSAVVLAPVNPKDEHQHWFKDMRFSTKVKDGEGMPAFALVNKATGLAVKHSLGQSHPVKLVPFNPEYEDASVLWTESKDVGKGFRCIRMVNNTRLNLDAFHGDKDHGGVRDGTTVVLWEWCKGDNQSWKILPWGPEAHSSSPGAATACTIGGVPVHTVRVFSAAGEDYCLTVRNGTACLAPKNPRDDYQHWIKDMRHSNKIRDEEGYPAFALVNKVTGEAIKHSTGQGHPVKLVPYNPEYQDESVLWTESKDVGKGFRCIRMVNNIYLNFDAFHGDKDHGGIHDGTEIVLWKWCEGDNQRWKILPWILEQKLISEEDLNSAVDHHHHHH ?
Marked response: 1.6

Exam item: Which glycan array binding signal (z-score) value belongs to HPA (Helix pomatia), Q2F1K8 (protein) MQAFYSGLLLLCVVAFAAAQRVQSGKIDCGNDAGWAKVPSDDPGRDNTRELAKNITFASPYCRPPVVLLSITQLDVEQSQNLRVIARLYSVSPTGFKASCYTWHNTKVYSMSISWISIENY ?
Marked response: 0.244

Exam item: Which glycan array binding signal (z-score) value belongs to HFR-3 (Triticum aestivum) (protein) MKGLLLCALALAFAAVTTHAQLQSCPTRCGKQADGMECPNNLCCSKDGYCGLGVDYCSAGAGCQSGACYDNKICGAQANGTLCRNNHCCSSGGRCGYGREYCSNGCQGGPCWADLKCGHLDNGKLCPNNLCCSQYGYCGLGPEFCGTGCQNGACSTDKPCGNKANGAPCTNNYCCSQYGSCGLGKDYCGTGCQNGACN ?
Marked response: -1.23

Now turn to the next binder.
Exam item: Which glycan array binding signal (z-score) value belongs to AT1G73650(15) (Arabidopsis thaliana), F4HRY1 (protein) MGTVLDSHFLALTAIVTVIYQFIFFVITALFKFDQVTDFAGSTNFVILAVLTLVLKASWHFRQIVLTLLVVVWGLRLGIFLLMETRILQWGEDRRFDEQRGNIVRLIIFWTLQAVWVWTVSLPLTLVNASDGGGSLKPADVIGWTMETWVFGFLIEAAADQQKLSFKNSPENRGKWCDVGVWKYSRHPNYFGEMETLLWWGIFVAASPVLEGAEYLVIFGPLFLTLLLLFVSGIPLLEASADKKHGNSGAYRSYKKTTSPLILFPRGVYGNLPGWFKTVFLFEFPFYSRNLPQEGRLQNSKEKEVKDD ?
Marked response: 2.65
